test system: HCV NS3; experiment: magnetic-bead pull-down with q-PCR; details: BD buffer: 50 mM NaH2PO4 pH 8.0, 150 mM NaCl, 5 mM KCl, 2 mM MgCl2, 0.05% Tween-20; room temperature, 30 min; aptamer heated to 95 C and cooled at 4 C
Endpoint Name: Kd (µM)
Give bare numbers, in µM.

(Q) If you can, please state the reported Kd value of AGCAGCACAGAGGTCCTGCATCACGAAGCCTGGCAGCGTGCTACCGTGAA [MP-1] .
(A) 0.0233

* * *

test system: Hepatitis B surface antigen (HBs Ag); assay: magnetic-bead pull-down with q-PCR; details: BD buffer: 50 mM NaH2PO4 pH 8.0, 150 mM NaCl, 5 mM KCl, 2 mM MgCl2, 0.05% Tween-20; room temperature, 30 min; aptamer heated to 95 C and cooled at 4 C
Endpoint Name: Kd (nM)
Numbers only, in nM.

(Q) If you can, please state the reported Kd value of AGCAGCACAGAGGTCCTGCATCACGAAGCCTGGCAGCGTGCTACCGTGAA [MP-1] .
(A) 28.3
